B1: HDV Ribozyme (parent)
chain: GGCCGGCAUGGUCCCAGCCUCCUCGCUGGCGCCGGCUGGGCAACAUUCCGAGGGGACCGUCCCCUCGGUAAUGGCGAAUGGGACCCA

# Variants of: B1
# assay-notes: self-cleavage, relative activity (ratio to wild type); higher = more cleavage; co-transcriptional
Note: every record was labeled by where its self-cleavage sits among bottom end (below 0.1), midrange (0.1 to below 0.5), top end (0.5 or more)

The examples below pair each entry with its known result.
GGCCGGCAUGGUCCCAGCUUCCUCGCUGGCGCCGGCUGGGCAACAUUCCGAGGGGACCGUCCCCUCGGUAAUGGCGAAUGGGAACCA [C19U C84A] : bottom end
GGCCGGCAUGGUCCCAGCCUCCUCGCUCGCGCCGGCUGGGCAACAUUCCGAGGGGACCGUCCACUCGGUAAUGGCGAAUGGGACCCA [G28C C63A] : midrange
GGCCGGCAUGGUCCCAGCCUCCUCGCUGGCGCCGGCUGGGCAACGUUCCGAGGGGACCGUCCCCUCGGUAAUAGCGAAUGGGACCCA [A45G G73A] : top end
GGCCGGCAUGGUCCCAGCCUCCUCGCUGGCGCCGGCUGGGCAACAUUCCGAGGGGACCGUCCCCUCGGUAUUGGCGAAUUGGACCCA [A71U G80U] : midrange
GGCCGGGAUGAUCCCAGCCUCCUCGCUGGCGCCGGCUGGGCAACAUUCCGAGGGGACCGUCCCCUCGGUAAUGGCGAAUGGGACCCA [C7G G11A] : bottom end
GGCCGGCAUGGUCCCAGCCUCCUCGCUAGCGCCGGCUGGGCAACAUUCCGAGGGGACCGUCCCCUCGGCAAUGGCGAAUGGGACCCA [G28A U69C] : bottom end
GGCCGGCAUGGUCCCAGCCUCCUCCCUGGCGCCGGCUGGGCAACAUUCCGAGGGGACCGUCCCCUCGGUAAUGGCGAAUGGUACCCA [G25C G82U] : bottom end
GGCCGGAAUGGUCCCAGCGUCCUCGCUGGCGCCGGCUGGGCAACAUUCCGAGGGGACCGUCCCCUCGGUAAUGGCGAAUGGGACCCA [C7A C19G] : midrange
GGCCGGCAUGGUCCCAGCCUCCGCGCUGGCGCCGGCUGGGUAACAUUCCGAGGGGACCGUCCCCUCGGUAAUGGCGAAUGGGACCCA [U23G C41U] : top end
GGCCGGCAUGGUCCCAGCCUCCUCGCUGGCGCCGGCUAGGCAACAUUCCGAGGGGACCGUCCCCUCAGUAAUGGCGAAUGGGACCCA [G38A G67A] : bottom end

Task: Where would GGCCGGCAUGGUCCCAGCCUCCUCGCUGGCGCCGGCUGGGCAACAUUCCGAGGGGUCCGUCCCCUCGGUAAUGGCGAAUGGGACUCA [A56U C85U] land among the classes by reported self-cleavage?
Output: top end

Task: Band assignment needed for GGCCGGCAAGGUCCCAGCCUCCUCGCUGGCGCCGGCUGGGCAACAUUCCGAGGGGACCGUCCCCUCCGUAAUGGCGAAUGGGACCCA [U9A G67C] please.
Output: top end

Task: Which self-cleavage band matches GGCCGGCAUGGUCCCAGCCUCUUCGCUGGCGCCGGCUGGGCAACAUUCCGAAGGGACCGUCCCCUCGGUAAUGGCGAAUGGGACCCA [C22U G52A] ?
Output: top end

Taken from the RNAGym collection of RNA variant scans (doi:10.7554/elife.80360).
